Origin of measurements: ChEMBL document CHEMBL4425094

# System: MDA-MB-231
# ASSAY OVERVIEW: Cytotoxicity against human MDA-MB-231 cells assessed as cell growth inhibition after 24 hrs by MTT assay
# Type: functional, cell-based
# ASSAY SETUP: MDA-MB-231, 24 h
READOUT KIND: IC50

COMPOUND	READOUT KIND	EXPERIMENTAL RESULT
O=C1C[C@@H](c2ccccc2)N2CCc3ccccc3[C@@H]2C1 (relative stereo)	IC50	> 20 µM
CCC[C@@H]1C[C@@H](O)/C=C\C(CC)[C@H]2c3cc(OCc4ccccc4)c(OCc4ccccc4)cc3CCN12 (stereo partly drawn)	IC50	2.72 µM
C[C@@H]1CC(=O)C[C@H]2c3cc4c(cc3CCN12)OCO4 (relative stereo)	IC50	> 20 µM
COc1ccc([C@@H]2C[C@H](O)C[C@H]3c4cc(OCc5ccccc5)c(OCc5ccccc5)cc4CCN23)cc1	IC50	> 20 µM
O[C@@H]1C[C@@H](c2ccccc2)N2CCc3cc4c(cc3[C@@H]2C1)OCO4	IC50	> 20 µM
C[C@@H]1C[C@H](O)C[C@H]2c3cc(OCc4cc(F)cc(F)c4)c(OCc4cc(F)cc(F)c4)cc3CCN12	IC50	3.16 µM
CCCCCC[C@@H]1C[C@@H](O)C[C@H]2c3cc(OCc4ccccc4)c(OCc4ccccc4)cc3CCN12	IC50	> 20 µM
CC1(C)CC(=O)C[C@H]2c3cc(OCc4ccccc4)c(OCc4ccccc4)cc3CCN21	IC50	> 20 µM
